Each recorded value in this set is attributed to patent US11214803B2.

- System: Yap1 mRNA
- TEST: Antisense inhibition of human Yap1 in A-431 cells by cEt gapmers, single dose (Example 3, RTS36584)
- Format: cell-based
- SETUP_CONDITIONS: Table 27; Yap1 mRNA by 3-10-3 cEt gapmers targeting SEQ ID NO.: 1, and 2; percent of untreated control
Strand notation (5' to 3'): a small letter for the sugar, then the base; units joined by * are phosphorothioate-linked, units joined directly phosphodiester-linked; [ ] holds rarer units or linkages, { } end groups; capitals alone tell only the bases. k = constrained ethyl (cEt); [5mC] = 5-methylcytosine; d = 2'-deoxy (DNA)
Record form. Attribute: YAP1 (% UTC). Fill in for each entry.
Just the number in % UTC, nothing appended.

Data request, read-out YAP1 (% UTC), for 1075565 (kT*kA*kT*dA*dT*dA*dA*d[5mC]*dA*dG*dG*d[5mC]*d[5mC]*kA*k[5mC]*k[5mC]; antisense) [compound 1075565]
52

Same question for 1075277 (antisense kT*kT*kA*dT*dA*dA*dG*dA*dA*d[5mC]*dT*dG*dT*kG*kG*k[5mC]) [compound 1075277] please.
13

Same question for 1076397 (antisense kA*kA*k[5mC]*d[5mC]*dT*dA*dT*dA*dT*dT*dT*dG*dA*kG*k[5mC]*k[5mC]) [compound 1076397] please.
4

Same question for 1074477 (kG*kT*kT*d[5mC]*d[5mC]*dG*dA*d[5mC]*dA*dA*dA*dA*d[5mC]*k[5mC]*kA*kA; antisense) [compound 1074477] please.
10

Same question for 1075661 (antisense kG*kA*kA*dT*dA*dG*dG*dA*dT*dA*d[5mC]*dA*dA*kG*k[5mC]*kA) [compound 1075661] please.
74

Same question for 1074413 (kA*k[5mC]*kT*dG*dT*dG*dA*dA*dA*dG*dA*dG*dG*kT*k[5mC]*kA; antisense) [compound 1074413] please.
4

Same question for 1075021 (antisense kT*kT*kA*d[5mC]*dA*dA*d[5mC]*d[5mC]*dT*dA*dG*dA*dT*kT*kT*kG) [compound 1075021] please.
68
